Below are Anti-HIV activity (EC50) values recorded for HIV-1.
ENDPOINT: Anti-HIV activity (EC50)

seq_string="RAYVAWRNR [HL9 (W109→Y)]" endpoint="Anti-HIV activity (EC50)" readout_value="No Anti-HIV"
seq_string="RVVRDPQGIRAYVAWRNR [HL18 (W109-Y)]" endpoint="Anti-HIV activity (EC50)" readout_value="No Anti-HIV"
seq_string="RVVRDPQGI [HL18-N9]" endpoint="Anti-HIV activity (EC50)" readout_value="No Anti-HIV"
seq_string="RAWVAYRNR [HL9 (W112→Y)]" endpoint="Anti-HIV activity (EC50)" readout_value="No Anti-HIV"
seq_string="RVVRDPQGIRAWVAYRNR [HL18 (W112-Y)]" endpoint="Anti-HIV activity (EC50)" readout_value="No Anti-HIV"
